Target: dihydrolipoamide acyltransferase (DlaT) (Mycobacterium tuberculosis)
Sequence (P9WIS7 1-553): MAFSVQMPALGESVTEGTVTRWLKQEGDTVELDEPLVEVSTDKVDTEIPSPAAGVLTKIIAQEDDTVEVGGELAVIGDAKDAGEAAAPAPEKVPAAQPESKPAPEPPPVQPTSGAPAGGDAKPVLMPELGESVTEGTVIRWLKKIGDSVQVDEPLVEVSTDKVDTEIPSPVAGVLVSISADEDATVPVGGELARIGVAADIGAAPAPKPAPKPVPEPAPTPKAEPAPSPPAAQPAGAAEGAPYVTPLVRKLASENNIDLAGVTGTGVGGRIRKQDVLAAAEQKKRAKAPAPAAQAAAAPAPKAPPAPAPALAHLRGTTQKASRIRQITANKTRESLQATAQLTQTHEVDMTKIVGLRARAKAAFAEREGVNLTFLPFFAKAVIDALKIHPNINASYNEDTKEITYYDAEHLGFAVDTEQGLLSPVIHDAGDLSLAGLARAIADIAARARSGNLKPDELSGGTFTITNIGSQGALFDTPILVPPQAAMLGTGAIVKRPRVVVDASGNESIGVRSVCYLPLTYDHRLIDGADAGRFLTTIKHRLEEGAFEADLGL
Assay: DlaT inhibition (Dlat IC50); DTNB peroxidase assay with Lpd, DlaT and AhpD
Type: biochemical
Conditions: Dlat IC50 category
ASSAY_ENDPOINT: IC50

In: State its IC50 for this compound: Cc1cc(N(C)C)ccc1-c1ccc(C=C2SC(=S)N(CCCC(=O)O)C2=O)o1
Out: 11 to 40 µM

In: State its IC50 for this compound: O=C(O)C1CCC(N2C(=O)C(=Cc3ccc(-c4ccc(Cl)cc4)o3)SC2=S)CC1 (centres unmarked)
Out: < 10 µM

In: State its IC50 for this compound: O=C(O)C1CCCC(N2C(=O)C(=Cc3ccc(-c4ccccc4Cl)o3)SC2=S)C1 (centres unmarked)
Out: 11 to 40 µM

In: State its IC50 for this compound: O=C(O)c1ccccc1NN1C(=O)C(=Cc2ccc(-c3ccccc3OCc3ccccc3)o2)SC1=S
Out: 11 to 40 µM

Next, consider the following compound.
In: State its IC50 for this compound: Cc1ccc(-c2ccc(C=C3SC(=S)N(C4CCCC(C(=O)O)C4)C3=O)o2)c(C)c1 (centres unmarked)
Out: < 10 µM

---

Molecular target: dihydrolipoamide acyltransferase (DlaT) (Mycobacterium tuberculosis)
Assay: DlaT inhibition (Dlat IC50); DTNB peroxidase assay with Lpd, DlaT and AhpD
Format: biochemical
Conditions: Dlat IC50 category, Table 10, Compounds J1 to J3
pIC50: −log10 of the molar value.
ASSAY_ENDPOINT: pIC50

In: State its pIC50 for this compound: O=C(O)C(Cc1ccccc1)N1C(=O)C(=Cc2ccc(-c3cc4ccccc4s3)o2)SC1=S (stereo not shown)
Out: > 5.00

---

The molecules listed here are annotated with their IC50.
Biological target: dihydrolipoamide acyltransferase (DlaT) (Mycobacterium tuberculosis, UniProt P9WIS7)
Test: DlaT inhibition (Dlat IC50); DTNB peroxidase assay with Lpd, DlaT and AhpD
Format: biochemical
Details: Dlat IC50 category, Table 16, Compounds P1 to P2

In: State its IC50 for this molecule: O=C(O)C(c1ccccc1)N1C(=O)C(=Cc2cccc(-c3ccc(Cl)s3)n2)SC1=S (centres unmarked) [Compound P1]
Out: < 10 µM

In: State its IC50 for this molecule: O=C(O)CCN1C(=O)C(=Cc2cccc(-c3ccc(Cl)s3)n2)SC1=S [Compound P2]
Out: 11 to 40 µM

---

Target: dihydrolipoamide acyltransferase (DlaT) (Mycobacterium tuberculosis, UniProt P9WIS7)
Test: DlaT inhibition (Dlat IC50); DTNB peroxidase assay with Lpd, DlaT and AhpD
Assay type: biochemical
Conditions: Table 1, Compounds A1 to A294; read-out: Dlat IC50 category
pIC50: −log10 of the molar value.
The compounds listed here are annotated with their pIC50.

In: Name the value of pIC50 reported for O=C(O)c1cc(N2C(=O)C(=Cc3ccc(-c4cccc(C(F)(F)F)c4)o3)SC2=S)ccc1Cl when tested on dihydrolipoamide acyltransferase (DlaT) (Mycobacterium tuberculosis, UniProt P9WIS7).
Out: > 5.00

In: Name the value of pIC50 reported for O=C(O)c1cccc(N2C(=O)C(=Cc3ccc(-c4cc(Cl)cc(Cl)c4)o3)SC2=S)c1 when tested on dihydrolipoamide acyltransferase (DlaT) (Mycobacterium tuberculosis, UniProt P9WIS7).
Out: 4.40 to 4.96

In: Name the value of pIC50 reported for O=C(O)c1cccc(N2C(=O)C(=Cc3ccc(-c4ccc(O)cc4Cl)o3)SC2=S)c1 when tested on dihydrolipoamide acyltransferase (DlaT) (Mycobacterium tuberculosis, UniProt P9WIS7).
Out: > 5.00

---

The molecules listed here are annotated with their pIC50.
Target: dihydrolipoamide acyltransferase (DlaT) (Mycobacterium tuberculosis, UniProt P9WIS7)
Sequence (P9WIS7 1-553): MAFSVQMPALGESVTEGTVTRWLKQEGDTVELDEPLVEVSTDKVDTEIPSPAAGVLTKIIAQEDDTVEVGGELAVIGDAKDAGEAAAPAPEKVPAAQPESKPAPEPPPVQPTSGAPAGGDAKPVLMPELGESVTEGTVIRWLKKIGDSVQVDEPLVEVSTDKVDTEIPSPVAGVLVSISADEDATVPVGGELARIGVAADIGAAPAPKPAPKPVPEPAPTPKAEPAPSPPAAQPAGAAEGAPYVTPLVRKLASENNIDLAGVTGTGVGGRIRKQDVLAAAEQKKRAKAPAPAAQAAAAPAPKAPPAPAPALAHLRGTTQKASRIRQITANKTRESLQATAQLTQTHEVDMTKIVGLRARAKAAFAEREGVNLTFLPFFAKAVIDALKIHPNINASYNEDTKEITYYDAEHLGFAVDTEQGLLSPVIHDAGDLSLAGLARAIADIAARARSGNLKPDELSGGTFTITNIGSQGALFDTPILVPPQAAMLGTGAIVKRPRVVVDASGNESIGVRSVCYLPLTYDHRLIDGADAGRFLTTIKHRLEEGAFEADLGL
Test: DlaT inhibition (Dlat IC50); DTNB peroxidase assay with Lpd, DlaT and AhpD
Format: biochemical
Conditions: Table 1, Compounds A1 to A294; read-out: Dlat IC50 category
pIC50: −log10 of the molar value.

In: State its pIC50 for this molecule: O=C(O)c1cccc(N2C(=O)C(=Cc3ccc(-c4ccc(F)cc4)o3)SC2=S)c1
Out: > 5.00

In: State its pIC50 for this molecule: O=C(O)c1cc(N2C(=O)C(=Cc3ccc(-c4ccc(C5CCCCC5)cc4)o3)SC2=S)ccc1O
Out: > 5.00

In: State its pIC50 for this molecule: O=C(O)c1ccc(F)c(N2C(=O)C(=Cc3ccc(-c4ccc(Cl)cc4)o3)SC2=S)c1
Out: > 5.00

***
In: State its pIC50 for this molecule: Cc1ccc(-c2ccc(C=C3SC(=S)N(c4cc(C(=O)O)ccc4F)C3=O)cc2)cc1
Out: 4.40 to 4.96

---

Target: dihydrolipoamide acyltransferase (DlaT) (Mycobacterium tuberculosis, UniProt P9WIS7)
Experiment: DlaT inhibition (Dlat IC50); DTNB peroxidase assay with Lpd, DlaT and AhpD
Assay type: biochemical
Settings: Dlat IC50 category
pIC50: −log10 of the molar value.
ASSAY_ENDPOINT: pIC50

Some solved entries appear below for comparison.
In: State its pIC50 for this compound: O=C(O)C(Cc1ccccc1)N1C(=O)C(=Cc2ccc(-c3ccc(Cl)cc3Cl)o2)SC1=S (stereo not shown) [Compound B45]
Out: > 5.00

In: State its pIC50 for this compound: CC(C(=O)O)N1C(=O)C(=Cc2ccc(-c3cccc(Cl)c3)o2)SC1=S (stereo not shown) [Compound B95]
Out: 4.40 to 4.96

***
In: State its pIC50 for this compound: Cc1cc(N(C)C)ccc1-c1ccc(C=C2SC(=S)N(Nc3ccccc3C(=O)O)C2=O)o1 [Compound D29]
Out: 4.40 to 4.96

In: State its pIC50 for this compound: O=C(O)C1CCC(N2C(=O)C(=Cc3ccc(-c4ccccc4-c4ccccc4)o3)SC2=S)CC1 (stereo not shown) [Compound C71]
Out: > 5.00

In: State its pIC50 for this compound: Cc1ccc(-c2ccc(C=C3SC(=S)N(C4CCC(C(=O)O)CC4)C3=O)o2)c(F)c1 (stereo not shown) [Compound C46]
Out: > 5.00

In: State its pIC50 for this compound: CC(C)(C)c1ccc(-c2ccc(C=C3SC(=S)N(Nc4ccccc4C(=O)O)C3=O)o2)cc1 (single isomer, unassigned) [Compound D2]
Out: > 5.00

In: State its pIC50 for this compound: Cc1ccc(-c2ccc(C=C3SC(=S)N(C4CCCC(C(=O)O)C4)C3=O)o2)cc1 (stereo not shown) [Compound C14]
Out: > 5.00

---

Target: dihydrolipoamide acyltransferase (DlaT) (Mycobacterium tuberculosis, UniProt P9WIS7)
Assay: DlaT inhibition (Dlat IC50); DTNB peroxidase assay with Lpd, DlaT and AhpD
Assay type: biochemical
Settings: Table 1, Compounds A1 to A294; read-out: Dlat IC50 category
ASSAY_ENDPOINT: IC50

Some solved entries appear below for comparison.
In: State its IC50 for this compound: CC(C)c1ccc(-c2ccc(C=C3SC(=S)N(c4cccc(O)c4)C3=O)o2)cc1
Out: 11 to 40 µM

In: State its IC50 for this compound: O=C(O)c1cccc(N2C(=O)C(=Cc3ccc(-c4ccccc4F)s3)SC2=S)c1 [Compound A196]
Out: < 10 µM

In: State its IC50 for this compound: O=C(O)c1cccc(N2C(=O)C(=Cc3ccc(-c4ccc(CSc5ccccc5)cc4)o3)SC2=S)c1
Out: 11 to 40 µM

In: State its IC50 for this compound: Nc1ccccc1-c1ccc(C=C2SC(=S)N(c3cccc(C(=O)O)c3)C2=O)o1
Out: > 41 µM

In: State its IC50 for this compound: COc1ccc(-c2ccc(C=C3SC(=S)N(c4cc(C(=O)O)ccc4F)C3=O)o2)c(C)c1
Out: < 10 µM

***
In: State its IC50 for this compound: Cc1ccc(-c2ccc(C=C3SC(=S)N(c4cc(C(=O)O)cc(C(F)(F)F)c4)C3=O)o2)cc1
Out: < 10 µM

In: State its IC50 for this compound: CN(C)c1ccc(-c2ccc(C=C3SC(=S)N(c4cccc(C(=O)O)c4)C3=O)o2)cc1
Out: 11 to 40 µM

In: State its IC50 for this compound: O=C(O)c1ccc(F)c(N2C(=O)C(=Cc3ccc(-c4ccccc4Cl)s3)SC2=S)c1
Out: < 10 µM

In: State its IC50 for this compound: O=C1C(=Cc2ccc(-c3ccccc3Cl)o2)SC(=S)N1c1cccc(O)c1
Out: 11 to 40 µM
